Target chain: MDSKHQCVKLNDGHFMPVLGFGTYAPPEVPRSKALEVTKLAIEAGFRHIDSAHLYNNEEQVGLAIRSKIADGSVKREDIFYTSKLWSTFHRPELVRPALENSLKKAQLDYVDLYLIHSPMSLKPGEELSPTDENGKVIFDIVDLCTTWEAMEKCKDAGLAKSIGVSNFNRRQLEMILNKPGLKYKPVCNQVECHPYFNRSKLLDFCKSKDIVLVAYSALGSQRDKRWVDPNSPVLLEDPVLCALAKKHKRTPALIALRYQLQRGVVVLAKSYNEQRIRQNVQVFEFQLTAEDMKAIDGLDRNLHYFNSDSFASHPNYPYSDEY
quantityMeasured: pIC50
Convention used: pIC50 is expressed as -log10 of the molar concentration.

-- ask Which pIC50 value is on record for "CN(CCC(=O)O)C(=O)c1ccc2c(c1)CC[C@@H]1[C@@H]2CC[C@]2(C)C(c3cncc(F)c3)=CC[C@@H]12" ?
-- reply 8.85
